Every entry's value here was drawn from patent US20090191193A1.

The entries below are paired with their reported melting point.

Here is how some molecules turned out for melting point.
sample_smiles=Cc1ccc(C)c(/C=C(\C#N)S(=O)(=O)Cc2ccccc2)c1 value_measured="126 to 129 °C"
sample_smiles=COc1ccc(CS(=O)(=O)/C(C#N)=C/c2ccc3oc(=O)[nH]c3c2)cc1OC value_measured="174 to 176 °C"

q: What value of melting point has been reported for the following molecule? N#C/C(=C\c1ccoc1)S(=O)(=O)Cc1ccc(Cl)cc1Cl
a: 116 to 122 °C

q: What value of melting point has been reported for the following molecule? COc1ccc(NS(=O)(=O)/C(C#N)=C/c2ccccc2O)cc1
a: 197 to 198 °C

q: What value of melting point has been reported for the following molecule? COc1ccc(/C=C(\C#N)S(=O)(=O)Cc2ccc(F)cc2)cc1O
a: 193 to 205 °C

q: What value of melting point has been reported for the following molecule? N#C/C(=C\c1c[nH]c2ccc(Cl)cc12)S(=O)(=O)Cc1ccc(Cl)cc1
a: 172 to 182 °C

q: What value of melting point has been reported for the following molecule? COc1ccc(/C=C(\C#N)S(=O)(=O)Cc2ccc(Cl)cc2)c(F)c1
a: 145 to 155 °C
